# Test system: Escherichia coli TOP10;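 note: peptides expressed intracellularly from a pBAD plasmid library in pooled LB shake-flask culture, induced with 0.3% L-arabinose, DNA abundance read by NGS, three biological replicates, DESeq2 with apeglm shrinkage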
# TEST DETAILS: shrunken log2 fold change of peptide-encoding DNA abundance (4.5 h post-induction vs induction); higher = less antimicrobial activity (less host growth inhibition)
# APPLIED CONDITIONS: time post-induction: 4.5 h; library: site-saturation at positions 5, 18, 19, 20
READOUT NAME: shrunken log2 fold change
Numbers only.

Here are 3 sequences together with their reported answers.
RRIRDRPPRLPRPRPRPGIVPRP
0.0969
RRIRIRPPRLPRPRPRPTKVPRP
-0.257
RRIRARPPRLPRPRPRPVDAPRP
1.28

State the recorded shrunken log2 fold change for every item in the following list.
1. RRIRNRPPRLPRPRPRPFVSPRP
2. RRIRWRPPRLPRPRPRPCWLPRP
3. RRIRWRPPRLPRPRPRPLFQPRP
4. RRIRNRPPRLPRPRPRPFASPRP
5. RRIRVRPPRLPRPRPRPQENPRP
6. RRIRARPPRLPRPRPRPCERPRP
7. RRIRRRPPRLPRPRPRPWWHPRP
8. RRIRVRPPRLPRPRPRPDIMPRP

**A:**
[-0.394, -0.119, -0.0127, -0.0512, -0.119, -0.00198, 0.0484, -0.18]
